Tested on: CYP1A1
Test: Induction of CYP1A1 gene expression in rat hepatic microsomes at 30 to 300 mg/kg, po QD for 7 days
Type: ADME, organism-based, Liver
Conditions: read-out: FC
MEASURED QUANTITY: fold induction at 168 h

substance_smiles=CC(C)Oc1ccc(-c2nc(-c3cccc4c3OCCN(CCCC(=O)O)C4)no2)cc1Cl system_under_test=CYP1A1 measured_quantity="fold induction at 168 h" readout_value=10000
substance_smiles=CC(C)Oc1ccc(-c2nc(-c3ccc4c(c3)CCN(CCCC(=O)O)CC4)no2)cc1C#N system_under_test=CYP1A1 measured_quantity="fold induction at 168 h" readout_value=10000

* * *

System: CYP1A1
Experiment: Induction of CYP1A1 mRNA expression in Sprague-Dawley rat hepatic microsomes at 30 mg/kg, po QD for 4 days relative to control
Format: ADME, organism-based, Liver
Details: read-out: FC
MEASURED QUANTITY: fold induction at 96 h

substance_smiles=Cc1c(-c2noc(-c3ccc(OC(C)C)c(C#N)c3)n2)ccc2c1CCN(C(CO)CO)C2 measured_quantity="fold induction at 96 h" readout_value=1.4

1 = Cc1c(-c2noc(-c3ccc(OC(C)C)c(C#N)c3)n2)ccc2c1CCN(C[C@@H](O)CO)C2
2 = CC(C)Oc1ccc(-c2nc(-c3ccc4c(c3)CCN(C(CO)CO)CC4)no2)cc1C#N
In: Pick the one with the larger fold induction at 96 h: 1 vs 2 Write down the label of the entry you select.
Out: 2
